These records show Magnification of LD50 decrease for PANC-1 (ATCC No. CRL-1469) cells.
One number for each entry.

Worked examples follow.
Just so you know, measured Magnification of LD50 decrease for Nc1nc(OCc2ccccc2)c2nc[nH]c2n1 came out at 8.24

# Magnification of LD50 decrease (molecule: CNC(=N)NCCC[C@H](N)C(=O)O ) is 1.72

New cases:
Magnification of LD50 decrease for CCCCOc1cc(CC2CNC(=O)N2)ccc1OC (stereo not drawn) is 1.66

---

Quick record: Magnification of LD50 decrease, PANC-1 (ATCC No. CRL-1469) cells.
Give bare numbers.

Field Magnification of LD50 decrease (entry c1cc(-c2cnn3cc(-c4ccc(OCCN5CCCCC5)cc4)cnc23)ccn1 [Dorsomorphin] ) reads 6.14

Value of Magnification of LD50 decrease reported for the compound C[C@]12CC[C@H](OS(=O)(=O)O)CC1=CC[C@@H]1[C@@H]2CC[C@]2(C)C(=O)CC[C@@H]12 [DHEA-S] is 3.13

GET /value?item= CC(C)[C@H](CO)Nc1nc(Nc2cccc(Cl)c2)c2ncn(C(C)C)c2n1 [Purvalanol A] &field=Magnification of LD50 decrease returns 1.71

New cases:
Cc1cn([C@H]2C[C@H](N=[N+]=[N-])[C@@H](CO)O2)c(=O)[nH]c1=O [AZT] has a reported Magnification of LD50 decrease of 4.67
